# method_description: qHTS of pediatric cancer cell lines to identify multiple opportunities for drug repurposing: Confirmatory screen for SK-N-MC cells (AID 1347111);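 note: cells exposed to compound for 48 h before the readout; nearly all actives have a fitted effect of over 70% in size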
# test_conditions: SK-N-MC cell viability; series mostly up to 45.9 µM
Inconclusive results are not listed. Activity calls are given as the source filed them. Calls come from the whole dose curve; as a rule, active = well fitted cell-killing curve with a large enough effect; inconclusive = small, poorly fitted or top-dose-only effect; inactive = no such curve, though single readings can be large or run the other way.
Log the outcome using a class from YES (active), NO (inactive)

// query Assay outcome for Nc1nc(Cl)nc2c1ncn2[C@@H]1O[C@H](CO)[C@@H](O)[C@@H]1F : what was it?
// result YES

// query Assay outcome for COc1ccc(C(=O)c2ccccc2)c(O)c1 : what was it?
// result NO

// query Assay outcome for CCN1/C(=C/C=C/c2sc3ccccc3[n+]2CC)Sc2ccccc21 : what was it?
// result YES

// query Assay outcome for CCN(CC)CCOc1ccc2c(c1)C(=O)c1cc(OCCN(CC)CC)ccc1-2 : what was it?
// result YES

// query Assay outcome for C[C@H]1O[C@@H](O[C@H]2CC[C@@]3(C)[C@H](CC[C@@H]4[C@@H]3C[C@@H](O)[C@]3(C)[C@@H](C5=CC(=O)OC5)CC[C@]43O)C2)C[C@H](O)[C@@H]1O[C@H]1C[C@H](O)[C@H](O[C@H]2C[C@H](O)[C@H](O[C@@H]3O[C@H](CO)[C@@H](O)[C@H](O)[C@H]3O)[C@@H](C)O2)[C@@H](C)O1 : what was it?
// result YES

// query Assay outcome for C[C@@]12C(=O)OC(=O)[C@]1(C)C1CCC2O1 : what was it?
// result YES

====

# System: CP238
# method_description: qHTS profiling for inhibitors of Plasmodium falciparum proliferation (AID 504749); note: nearly all actives have a fitted effect of over 60% in size
# test_conditions: P. falciparum in erythrocytes, SYBR Green DNA, 72 h; series mostly up to 28.7 µM
Inconclusive results are not listed. The source made the active and inactive calls. Calls come from the whole dose curve; as a rule, active = well fitted inhibition curve with a large enough effect; inconclusive = small, poorly fitted or top-dose-only effect; inactive = flat fitted curve, though single readings scatter.
Log the outcome using a class from active, inactive

// query Assay outcome for N=C(N)N1CCc2ccccc2C1 : what was it?
// result inactive

// query Assay outcome for CN(Cc1ccc(C(C)(C)C)cc1)Cc1cccc2ccccc12 : what was it?
// result inactive

// query Assay outcome for O[C@@H](c1cc(C(F)(F)F)nc2c(C(F)(F)F)cccc12)[C@H]1CCCCN1 : what was it?
// result active

// query Assay outcome for CCN(CC)CCNC(=O)c1cc(Br)c(N)cc1OC : what was it?
// result inactive

// query Assay outcome for NCCNC(=O)c1ccc(Cl)cn1 : what was it?
// result inactive

// query Assay outcome for COc1ccc(-c2cc(C(F)F)nn2-c2ccc(S(N)(=O)=O)cc2)cc1F : what was it?
// result inactive

// query Assay outcome for C#C[C@]1(O)CC[C@H]2[C@@H]3CCC4=Cc5oncc5C[C@]4(C)[C@H]3CC[C@@]21C : what was it?
// result inactive

// query Assay outcome for CN1CCC[C@@H]1CCO[C@](C)(c1ccccc1)c1ccc(Cl)cc1 : what was it?
// result inactive

// query Assay outcome for c1ccc(CC2=NCCN2)cc1 : what was it?
// result inactive

// query Assay outcome for O=C(c1ccc(F)cc1)C1CCN(CCn2c(=S)[nH]c3ccccc3c2=O)CC1 : what was it?
// result active

// query Assay outcome for COc1ccc2c(c1)c1c3n2CCN(C)C3=NCC1 : what was it?
// result inactive

// query Assay outcome for OCc1ccccn1 : what was it?
// result inactive
